TARGET_ENTITY: Fuc(a1-2)[GalNAc(a1-3)]Gal
EXPERIMENTAL_PROTOCOL: glycan array binding signal (z-score within array); higher = stronger binding
CONDITIONS: glycan notation: IUPAC condensed, linker removed
About 410 targets per protein were measured; listed, in parts, are those with the strongest signals and a random draw of the rest.
READOUT_TYPE: glycan array binding signal (z-score)

Look over these answered cases.
{"BINDER": "SP16665A-bot-344-23-344 (Bacteroides ovatus) (protein) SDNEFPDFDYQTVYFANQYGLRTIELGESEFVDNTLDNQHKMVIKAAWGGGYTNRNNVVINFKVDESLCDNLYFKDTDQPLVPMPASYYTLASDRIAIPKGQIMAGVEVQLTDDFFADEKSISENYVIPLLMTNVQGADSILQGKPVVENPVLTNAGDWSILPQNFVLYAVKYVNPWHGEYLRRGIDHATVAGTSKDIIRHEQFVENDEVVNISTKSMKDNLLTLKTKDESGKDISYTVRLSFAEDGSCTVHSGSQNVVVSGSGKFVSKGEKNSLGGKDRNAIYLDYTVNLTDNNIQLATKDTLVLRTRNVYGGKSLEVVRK", "glycan array binding signal (z-score)": -0.372}
{"BINDER": "EUL D1A (Oryza sativa) (protein) MFGFGHHHNQAPAAPSDPNQIFKIFCRANENYCLTVRDSAVVLAPVNPKDEHQHWFKDMRFSTKVKDGEGMPAFALVNKATGLAVKHSLGQSHPVKLVPFNPEYEDASVLWTESKDVGKGFRCIRMVNNTRLNLDAFHGDKDHGGVRDGTTVVLWEWCKGDNQSWKILPWGPEAHSSSPGAATACTIGGVPVHTVRVFSAAGEDYCLTVRNGTACLAPKNPRDDYQHWIKDMRHSNKIRDEEGYPAFALVNKVTGEAIKHSTGQGHPVKLVPYNPEYQDESVLWTESKDVGKGFRCIRMVNNIYLNFDAFHGDKDHGGIHDGTEIVLWKWCEGDNQRWKILPWILEQKLISEEDLNSAVDHHHHHH", "glycan array binding signal (z-score)": -0.299}
{"BINDER": "CVNH0 (Neurospora crassa), Q7S6U4 (protein) GSHIGPYMSFHVTAEDARIEVRDNRTILFARLRREDGEWNDASYELDQIIGNNDGHFQWGGQNFTETAEDIRFHPKEGAAEQPILRARLRDCNGEFHDRDVNLTEIVENVNGEFQAKF", "glycan array binding signal (z-score)": -0.436}
{"BINDER": "Gal 4 (Homo sapiens), Q8K419 (protein) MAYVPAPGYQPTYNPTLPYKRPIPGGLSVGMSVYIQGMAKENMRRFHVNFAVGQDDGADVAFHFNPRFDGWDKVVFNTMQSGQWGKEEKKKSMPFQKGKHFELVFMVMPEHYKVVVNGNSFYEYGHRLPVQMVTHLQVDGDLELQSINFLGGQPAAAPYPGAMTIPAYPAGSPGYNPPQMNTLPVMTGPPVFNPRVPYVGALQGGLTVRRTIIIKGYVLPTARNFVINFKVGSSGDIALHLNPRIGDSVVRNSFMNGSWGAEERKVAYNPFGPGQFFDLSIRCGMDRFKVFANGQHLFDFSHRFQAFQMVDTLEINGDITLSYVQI", "glycan array binding signal (z-score)": -0.2}
{"BINDER": "DBA (Dolichos biflorus) (protein) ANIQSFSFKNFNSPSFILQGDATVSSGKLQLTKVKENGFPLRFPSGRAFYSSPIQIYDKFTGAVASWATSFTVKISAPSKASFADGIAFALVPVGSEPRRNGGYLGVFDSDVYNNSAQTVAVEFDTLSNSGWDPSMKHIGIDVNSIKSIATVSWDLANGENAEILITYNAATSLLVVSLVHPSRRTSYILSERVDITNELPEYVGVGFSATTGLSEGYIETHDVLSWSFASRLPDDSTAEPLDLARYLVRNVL", "glycan array binding signal (z-score)": 0.024}
{"BINDER": "Intelectin-1a (Mus musculus) (protein) AEWSHPQFEKAEENLDTNRWGNSFFSSLPRSCKEIKQEHTKAQDGLYFLRTKNGVIYQTFCDMTTAGGGWTLVASVHENNMRGKCTVGDRWSSQQGNRADYPEGDGNWANYNTFGSAEAATSDDYKNPGYFDIQAENLGIWHVPNKSPLHNWRKSSLLRYRTFTGFLQHLGHNLFGLYKKYPVKYGEGKCWTDNGPALPVVYDFGDARKTASYYSPSGQREFTAGYVQFRVFNNERAASALCAGVRVTGCNTEHHCIGGGGFFPEGNPVQCGDFASFDWDGYGTHNGYSSSRKITEAAVLLFYR", "glycan array binding signal (z-score)": 0.968}

The following binders each have a reported value; give each one's glycan array binding signal (z-score).
1. PpFlo3 (Pichia pastoris) (protein) MGSSHHHHHHSSGLVPRGSHMQESGNGTTSDTAYACDIGATPFDGFNATIYQYQASDDNSIQDPVFMSTGYLQRNQLHSTTGVTNPGFNIFTAGVATTTLYGIPNVNYQNMLLELKGYFRADASGNYGLSLRNIDDSAILFFGRETAFECCNENLIPLDEAPTDYSLFTIKEGEASTNPDSYTYTQYLEAGRYYPVRTFFANIRTRAVFNFTMTLPDGSELTDFQNYIFQFGALNQ
2. EUL D1A second (Oryza sativa) (protein) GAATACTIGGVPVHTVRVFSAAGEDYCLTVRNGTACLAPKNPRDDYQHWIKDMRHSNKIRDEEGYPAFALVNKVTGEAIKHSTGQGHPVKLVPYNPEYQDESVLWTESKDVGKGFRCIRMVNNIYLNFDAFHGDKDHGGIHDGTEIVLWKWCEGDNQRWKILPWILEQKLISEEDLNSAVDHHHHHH
3. RegIIIgamma (Mus musculus), O09049 (protein) MLPRITITIMSWMLLSCLMLLSQVQGEVAKKDAPSSRSSCPKGSRAYGSYCYALFSVSKNWYDADMACQKRPSGHLVSVLSGAEASFLSSMIKSSGNSGQYVWIGLHDPTLGYEPNRGGWEWSNADVMNYINWETNPSSSSGNHCGTLSRASGFLKWRENYCNLELPYVCKFKA
4. Tamarinin (protein) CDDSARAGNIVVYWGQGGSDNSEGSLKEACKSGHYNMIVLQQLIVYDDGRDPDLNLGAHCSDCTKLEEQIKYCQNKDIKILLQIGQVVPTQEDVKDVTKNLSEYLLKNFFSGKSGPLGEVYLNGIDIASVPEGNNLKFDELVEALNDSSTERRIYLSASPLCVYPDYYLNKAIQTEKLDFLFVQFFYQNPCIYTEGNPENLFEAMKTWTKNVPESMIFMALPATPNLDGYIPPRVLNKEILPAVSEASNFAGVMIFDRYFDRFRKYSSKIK

a:
-0.298
-0.789
-0.258
-0.388
